system: Pseudomonas aeruginosa; assay: Antimicrobial activity against Pseudomonas aeruginosa ATCC […] assessed as growth inhibition by microdilution assay; format: functional
value_type: MIC (µg/mL)
Note: unit µg/mL is implicit; provide only the numeric part.

Guide cases for MIC, answers given:
>  <sample_smiles>
C/C=C(/NC(=O)[C@@H](O)[C@@H](C)CC)C(=O)N[C@@H](CC(C)C)C(=O)N[C@H](CCCN)C(=O)N[C@H](C(=O)N[C@H](C(=O)N[C@H](C(=O)N[C@H](CCCCN)C(=O)N[C@H](C(=O)N[C@H](C(=O)N[C@@H](CCCCN)C(=O)N[C@H](Cc1ccc(O)cc1)C(=O)N[C@@H](CC(C)C)C(=O)N[C@H](CO)C(C)C)C(C)C)C(C)C)C(C)C)C(C)C)C(C)C

>  <MIC [µg/mL]>
4

$$$$
>  <sample_smiles>
CC[C@H](NC(=O)[C@@H](O)[C@@H](C)CC)C(=O)N[C@@H](CC(C)C)C(=O)N[C@H](CCCN)C(=O)N[C@H](C(=O)N[C@H](C(=O)N[C@H](C(=O)N[C@H](CCCCN)C(=O)N[C@H](C(=O)N[C@H](C(=O)N[C@@H](CCCCN)C(=O)N[C@H](Cc1ccc(O)cc1)C(=O)N[C@@H](CC(C)C)C(=O)N[C@H](C(N)=O)C(C)C)C(C)C)C(C)C)C(C)C)[C@@H](C)CC)[C@@H](C)CC

>  <MIC [µg/mL]>
2

$$$$

Read the next record carefully.
I am curious: what MIC value has been reported for C/C=C(/NC(=O)[C@@H](O)[C@@H](C)CC)C(=O)N[C@@H](CC(C)C)C(=O)N[C@H](CCCN)C(=O)N[C@H](C(=O)N[C@H](C(=O)N[C@H](C(=O)N[C@H](CCCCN)C(=O)N[C@H](C(=O)N[C@H](C(=O)N[C@@H](CCCCN)C(=O)N[C@H](Cc1ccc(O)cc1)C(=O)N[C@@H](CC(C)C)C(=O)N[C@H](CO)C(C)C)C(C)C)C(C)C)C(C)C)C(C)C)[C@@H](C)CC ? 2

----------
Each entry below lists one item and its recorded MIC value.
test system: Campylobacter coli; test: Antimicrobial activity against Campylobacter coli ATCC 33559 assessed as growth inhibition by microdilution assay; assay type: functional
# value in mg/L; strip the unit string

>  <sample_smiles>
C/C=C(/NC(=O)[C@@H](O)[C@@H](C)CC)C(=O)N[C@@H](CC(C)C)C(=O)N[C@H](CCCN)C(=O)N[C@H](C(=O)N[C@H](C(=O)N[C@H](C(=O)N[C@H](CCCCN)C(=O)N[C@H](C(=O)N[C@H](C(=O)N[C@@H](CCCCN)C(=O)N[C@H](Cc1ccc(O)cc1)C(=O)N[C@@H](CC(C)C)C(=O)N[C@H](C(=O)O)C(C)C)C(C)C)C(C)C)C(C)C)[C@@H](C)CC)[C@@H](C)CC

>  <MIC, mg/L>
32

$$$$
>  <sample_smiles>
CC[C@H](NC(=O)[C@@H](O)[C@@H](C)CC)C(=O)N[C@@H](CC(C)C)C(=O)N[C@H](CCCN)C(=O)N[C@H](C(=O)N[C@H](C(=O)N[C@H](C(=O)N[C@H](CCCCN)C(=O)N[C@H](C(=O)N[C@H](C(=O)N[C@@H](CCCCN)C(=O)N[C@H](Cc1ccc(O)cc1)C(=O)N[C@@H](CC(C)C)C(=O)N[C@H](C(N)=O)C(C)C)C(C)C)C(C)C)C(C)C)[C@@H](C)CC)[C@@H](C)CC

>  <MIC, mg/L>
16

$$$$
>  <sample_smiles>
CC[C@H](C)[C@H](O)C(=O)N[C@H](C(=O)N[C@@H](CC(C)C)C(=O)N[C@H](CCCN)C(=O)N[C@H](C(=O)N[C@H](C(=O)N[C@H](C(=O)N[C@H](CCCCN)C(=O)N[C@H](C(=O)N[C@H](C(=O)N[C@@H](CCCCN)C(=O)N[C@H](Cc1ccc(O)cc1)C(=O)N[C@@H](CC(C)C)C(=O)N[C@H](CO)C(C)C)C(C)C)C(C)C)C(C)C)[C@@H](C)CC)[C@@H](C)CC)C(C)C

>  <MIC, mg/L>
8

$$$$
>  <sample_smiles>
C/C=C(/NC(=O)[C@@H](O)[C@@H](C)CC)C(=O)N[C@@H](CC(C)C)C(=O)N[C@H](CCCN)C(=O)N[C@H](C(=O)N[C@H](C(=O)N[C@H](C(=O)N[C@H](CCCCN)C(=O)N[C@H](C(=O)N[C@H](C(=O)N[C@@H](CCCCN)C(=O)N[C@H](Cc1ccc(O)cc1)C(=O)N[C@@H](CC(C)C)C(=O)N[C@H](CO)C(C)C)C(C)C)[C@@H](C)CC)C(C)C)[C@@H](C)CC)[C@@H](C)CC

>  <MIC, mg/L>
8

$$$$
>  <sample_smiles>
CC[C@H](C)[C@H](O)C(=O)N[C@@H](CO)C(=O)N[C@@H](CC(C)C)C(=O)N[C@H](CCCN)C(=O)N[C@H](C(=O)N[C@H](C(=O)N[C@H](C(=O)N[C@H](CCCCN)C(=O)N[C@H](C(=O)N[C@H](C(=O)N[C@@H](CCCCN)C(=O)N[C@H](Cc1ccc(O)cc1)C(=O)N[C@@H](CC(C)C)C(=O)N[C@H](CO)C(C)C)C(C)C)C(C)C)C(C)C)[C@@H](C)CC)[C@@H](C)CC

>  <MIC, mg/L>
32

$$$$
>  <sample_smiles>
CC[C@H](C)[C@H](O)C(=O)N[C@@H](C)C(=O)N[C@@H](CC(C)C)C(=O)N[C@H](CCCN)C(=O)N[C@H](C(=O)N[C@H](C(=O)N[C@H](C(=O)N[C@H](CCCCN)C(=O)N[C@H](C(=O)N[C@H](C(=O)N[C@@H](CCCCN)C(=O)N[C@H](Cc1ccc(O)cc1)C(=O)N[C@@H](CC(C)C)C(=O)N[C@H](CO)C(C)C)C(C)C)C(C)C)C(C)C)[C@@H](C)CC)[C@@H](C)CC

>  <MIC, mg/L>
8

$$$$
>  <sample_smiles>
CC[C@H](NC(=O)[C@@H](NC(C)=O)[C@@H](C)CC)C(=O)N[C@@H](CC(C)C)C(=O)N[C@H](CCCN)C(=O)N[C@H](C(=O)N[C@H](C(=O)N[C@H](C(=O)N[C@H](CCCCN)C(=O)N[C@H](C(=O)N[C@H](C(=O)N[C@@H](CCCCN)C(=O)N[C@H](Cc1ccc(O)cc1)C(=O)N[C@@H](CC(C)C)C(=O)N[C@H](CO)C(C)C)C(C)C)C(C)C)C(C)C)[C@@H](C)CC)[C@@H](C)CC

>  <MIC, mg/L>
16

$$$$
>  <sample_smiles>
C/C=C(/NC(=O)[C@@H](O)[C@@H](C)CC)C(=O)N[C@@H](CC(C)C)C(=O)N[C@H](CCCN)C(=O)N[C@H](C(=O)N[C@H](C(=O)N[C@H](C(=O)N[C@H](CCCCN)C(=O)N[C@H](C(=O)N[C@H](C(=O)N[C@@H](CCCCN)C(=O)N[C@H](Cc1ccc(O)cc1)C(=O)N[C@@H](CC(C)C)C(=O)N[C@H](CO)C(C)C)C(C)C)C(C)C)C(C)C)C(C)C)C(C)C

>  <MIC, mg/L>
32

$$$$
>  <sample_smiles>
CC[C@H](C)[C@H](O)C(=O)N[C@H](C(=O)N[C@@H](CC(C)C)C(=O)N[C@H](CCCN)C(=O)N[C@H](C(=O)N[C@H](C(=O)N[C@H](C(=O)N[C@H](CCCCN)C(=O)N[C@H](C(=O)N[C@H](C(=O)N[C@@H](CCCCN)C(=O)N[C@H](Cc1ccc(O)cc1)C(=O)N[C@@H](CC(C)C)C(=O)N[C@H](CO)C(C)C)C(C)C)C(C)C)C(C)C)[C@@H](C)CC)[C@@H](C)CC)[C@@H](C)O

>  <MIC, mg/L>
16

$$$$

Let's switch to this compound now.
Requested field: MIC. Item: C/C=C(/NC(=O)[C@@H](O)[C@@H](C)CC)C(=O)N[C@@H](CC(C)C)C(=O)N[C@H](CCCN)C(=O)N[C@H](C(=O)N[C@H](C(=O)N[C@H](C(=O)N[C@H](CCCCN)C(=O)N[C@H](C(=O)N[C@H](C(=O)N[C@@H](CCCCN)C(=O)N[C@H](Cc1ccc(O)cc1)C(=O)N[C@@H](CC(C)C)C(=O)N[C@H](CO)C(C)C)C(C)C)C(C)C)C(C)C)C(C)C)[C@@H](C)CC 16

----------
Listing of recorded IC50 at 48 h by entry.
assay: Cytotoxicity against human Caco-2 cells assessed as inhibition of cell viability incubated for 48 hrs by Cell Titer GLO assay; type: toxicity, cell-based
Don't forget the unit after the number, please.

>  <sample_smiles>
CC[C@H](NC(=O)[C@@H](O)[C@@H](C)CC)C(=O)N[C@@H](CC(C)C)C(=O)N[C@H](CCCN)C(=O)N[C@H](C(=O)N[C@H](C(=O)N[C@H](C(=O)N[C@H](CCCCN)C(=O)N[C@H](C(=O)N[C@H](C(=O)N[C@@H](CCCCN)C(=O)N[C@H](Cc1ccc(O)cc1)C(=O)N[C@@H](CC(C)C)C(=O)N[C@H](C(N)=O)C(C)C)C(C)C)C(C)C)C(C)C)[C@@H](C)CC)[C@@H](C)CC

>  <IC50 at 48 h>
11.3 µg/mL

$$$$

Entry CC[C@H](C)[C@H](O)C(=O)N[C@@H](C)C(=O)N[C@@H](CC(C)C)C(=O)N[C@H](CCCN)C(=O)N[C@H](C(=O)N[C@H](C(=O)N[C@H](C(=O)N[C@H](CCCCN)C(=O)N[C@H](C(=O)N[C@H](C(=O)N[C@@H](CCCCN)C(=O)N[C@H](Cc1ccc(O)cc1)C(=O)N[C@@H](CC(C)C)C(=O)N[C@H](CO)C(C)C)C(C)C)C(C)C)C(C)C)[C@@H](C)CC)[C@@H](C)CC : reported IC50 at 48 h = ? 13.5 µg/mL

Find the recorded IC50 at 48 h belonging to C/C=C(/NC(=O)[C@@H](O)[C@@H](C)CC)C(=O)N[C@@H](CC(C)C)C(=O)N[C@H](CCCN)C(=O)N[C@H](C(=O)N[C@H](C(=O)N[C@H](C(=O)N[C@H](CCCCN)C(=O)N[C@H](C(=O)N[C@H](C(=O)N[C@@H](CCCCN)C(=O)N[C@H](Cc1ccc(O)cc1)C(=O)N[C@@H](CC(C)C)C(=O)N[C@H](CO)C(C)C)C(C)C)C(C)C)C(C)C)C(C)C)C(C)C and report it. 87.5 µg/mL

Can you look up the measured IC50 at 48 h of CC[C@H](C)[C@H](O)C(=O)N[C@H](C(=O)N[C@@H](CC(C)C)C(=O)N[C@H](CCCN)C(=O)N[C@H](C(=O)N[C@H](C(=O)N[C@H](C(=O)N[C@H](CCCCN)C(=O)N[C@H](C(=O)N[C@H](C(=O)N[C@@H](CCCCN)C(=O)N[C@H](Cc1ccc(O)cc1)C(=O)N[C@@H](CC(C)C)C(=O)N[C@H](CO)C(C)C)C(C)C)C(C)C)C(C)C)[C@@H](C)CC)[C@@H](C)CC)C(C)C for me? 8.3 µg/mL

Can you look up the measured IC50 at 48 h of CC[C@H](NC(=O)[C@@H](NC(C)=O)[C@@H](C)CC)C(=O)N[C@@H](CC(C)C)C(=O)N[C@H](CCCN)C(=O)N[C@H](C(=O)N[C@H](C(=O)N[C@H](C(=O)N[C@H](CCCCN)C(=O)N[C@H](C(=O)N[C@H](C(=O)N[C@@H](CCCCN)C(=O)N[C@H](Cc1ccc(O)cc1)C(=O)N[C@@H](CC(C)C)C(=O)N[C@H](CO)C(C)C)C(C)C)C(C)C)C(C)C)[C@@H](C)CC)[C@@H](C)CC for me? 17.6 µg/mL

So what's the measured IC50 at 48 h for this one? CC[C@H](C)[C@H](O)C(=O)N[C@@H](CO)C(=O)N[C@@H](CC(C)C)C(=O)N[C@H](CCCN)C(=O)N[C@H](C(=O)N[C@H](C(=O)N[C@H](C(=O)N[C@H](CCCCN)C(=O)N[C@H](C(=O)N[C@H](C(=O)N[C@@H](CCCCN)C(=O)N[C@H](Cc1ccc(O)cc1)C(=O)N[C@@H](CC(C)C)C(=O)N[C@H](CO)C(C)C)C(C)C)C(C)C)C(C)C)[C@@H](C)CC)[C@@H](C)CC 42.2 µg/mL

State the recorded IC50 at 48 h for this entry: CC[C@@H](NC(=O)[C@@H](O)[C@@H](C)CC)C(=O)N[C@@H](CC(C)C)C(=O)N[C@H](CCCN)C(=O)N[C@H](C(=O)N[C@H](C(=O)N[C@H](C(=O)N[C@H](CCCCN)C(=O)N[C@H](C(=O)N[C@H](C(=O)N[C@@H](CCCCN)C(=O)N[C@H](Cc1ccc(O)cc1)C(=O)N[C@@H](CC(C)C)C(=O)N[C@H](CO)C(C)C)C(C)C)C(C)C)C(C)C)C(C)C)C(C)C 32.4 µg/mL
